Tested on: ANGPTL3 gene
procedure-details: ANGPTL3 gRNA/SpCas9 editing in primary cynomolgus hepatocytes (Table 3)
Assay type: cell-based, cynomolgus monkey
assay-readout: Cyno Primary Hepatocyte Editing % 100 ng/mL (%)

[
  {
    "molecule": "GA148: ANGPTL3 gRNA; protospacer ACAAAACTTCAATGAAACGT (SEQ ID NO: 146) (nucleic acid, 2'-O-methyl at 1, 2, other sugars and backbone not given here; further chemistry not fully specified) guide: ACAAAACTTCAATGAAACGTGTTTTAGAGCTAGAAATAGCAAGTTAAAATAAGGCTAGTCCGTTATCAACTTGAAAAAGTGGCACCGAGTCGGTGCTTTT",
    "uom": "%",
    "numeric-value": 28.57
  },
  {
    "molecule": "GA151: ANGPTL3 gRNA; protospacer GAGAACTACAAATATGGTTT (SEQ ID NO: 149) (nucleic acid, 2'-O-methyl at 1, 2, other sugars and backbone not given here; further chemistry not fully specified) guide: GAGAACTACAAATATGGTTTGTTTTAGAGCTAGAAATAGCAAGTTAAAATAAGGCTAGTCCGTTATCAACTTGAAAAAGTGGCACCGAGTCGGTGCTTTT",
    "uom": "%",
    "numeric-value": 11.32
  },
  {
    "molecule": "GA109: ANGPTL3 gRNA; protospacer GGCCTCCTTCAGTTGGGACA (SEQ ID NO: 107) (nucleic acid, 2'-O-methyl at 1, 2, other sugars and backbone not given here; further chemistry not fully specified) guide: GGCCTCCTTCAGTTGGGACAGTTTTAGAGCTAGAAATAGCAAGTTAAAATAAGGCTAGTCCGTTATCAACTTGAAAAAGTGGCACCGAGTCGGTGCTTTT",
    "uom": "%",
    "numeric-value": 4.15
  }
]
